Molecular target: T1, GST-DDX19A (recombinant full-length DEAD-box helicase 19A) (UniProt Q9NUU7 1-478)
T1 construct: DEAD-box helicase 19A (DDX19A), expressed from pGEX-DDX19A; Printed both as GST-DDX19A and as DDX19A-GST; no cleavage of GST is described, and the array is detected by anti-GST. pGEX vectors usually put GST at the N-terminus (surmise); also called DDX19A-GST; recombinant DDX19A
T1 sequence (looked up): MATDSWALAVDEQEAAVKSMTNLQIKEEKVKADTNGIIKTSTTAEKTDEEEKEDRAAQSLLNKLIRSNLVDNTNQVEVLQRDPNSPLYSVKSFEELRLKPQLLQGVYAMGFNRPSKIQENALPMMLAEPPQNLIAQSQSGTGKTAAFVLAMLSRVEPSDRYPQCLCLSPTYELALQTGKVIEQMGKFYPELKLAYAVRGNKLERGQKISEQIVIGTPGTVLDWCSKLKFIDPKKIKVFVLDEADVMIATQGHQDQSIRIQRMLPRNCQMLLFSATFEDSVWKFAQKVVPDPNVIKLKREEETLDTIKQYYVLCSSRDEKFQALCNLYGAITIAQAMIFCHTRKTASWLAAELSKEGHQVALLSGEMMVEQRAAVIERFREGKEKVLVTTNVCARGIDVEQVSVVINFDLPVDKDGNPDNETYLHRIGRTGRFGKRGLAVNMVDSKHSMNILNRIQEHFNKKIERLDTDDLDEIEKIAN
Experiment: fluorescence polarisation; fluorescence anisotropy; 50 nM FITC-labelled H3.1 (16-34) peptide in 20 mM HEPES pH 7.5, 100 mM KCl, 0.1 mM DTT, 10% glycerol; DDX19A added stepwise; 23°C; fit to a simple binding equilibrium
Details: both partners purified
pKd: −log10 of the molar value. Ends that are not written are not given here.
endpoint: pKd

[ask] # get_value(readout='pKd', item= PRKQLATKAARKSAPATGG (also: FITC label, position not given here) [FITC-labelled H3.1 peptide (residues 16-34), unmodified] )
[reply] < 6.00

Where do the numbers come from? From paper PMC8096265.
